# protocol: Kinetic solubility in PBS
# Type: physicochemical
# cond: phosphate-buffered saline, pH 7.4, aqueous buffer, kinetic from dmso stock
readout: solubility at 2 h (µM)

1. O=P(O)(O)CP(=O)(O)OC[C@H]1O[C@@H](n2cnc3c(-c4cccc5c4CCCC5)ncnc32)[C@H](O)[C@@H]1O [31A.12]; 80
2. C[C@H](Nc1cc(Cl)nc2c1cnn2[C@@H]1O[C@H](COP(=O)(O)CP(=O)(O)O)[C@@H](O)[C@H]1O)c1ccccc1F [AB680, quemliclustat, reference compound]; 76
3. Cc1nc(-c2cc3ccccc3o2)c2ccn([C@@H]3O[C@H](COP(=O)(O)CP(=O)(O)O)[C@@H](O)[C@H]3O)c2n1 [18E.8]; 86
4. O=P(O)(O)CP(=O)(O)OC[C@H]1O[C@@H](n2ccc3c(-c4cc5ccccc5o4)nc(F)nc32)[C@H](O)[C@@H]1O [14D.8]; 76
5. O=P(O)(O)CP(=O)(O)OC[C@H]1O[C@@H](n2ccc3c(-c4ccc5c(c4)CCCC5)nc(Cl)nc32)[C@H](O)[C@@H]1O [7B.23]; 84

###

# target: CYP1A2 (Homo sapiens, UniProt P05177)
# Construct: assay run by Bienta (Enamine Biology Services)
# Sequence (P05177 2-516 limits assumed): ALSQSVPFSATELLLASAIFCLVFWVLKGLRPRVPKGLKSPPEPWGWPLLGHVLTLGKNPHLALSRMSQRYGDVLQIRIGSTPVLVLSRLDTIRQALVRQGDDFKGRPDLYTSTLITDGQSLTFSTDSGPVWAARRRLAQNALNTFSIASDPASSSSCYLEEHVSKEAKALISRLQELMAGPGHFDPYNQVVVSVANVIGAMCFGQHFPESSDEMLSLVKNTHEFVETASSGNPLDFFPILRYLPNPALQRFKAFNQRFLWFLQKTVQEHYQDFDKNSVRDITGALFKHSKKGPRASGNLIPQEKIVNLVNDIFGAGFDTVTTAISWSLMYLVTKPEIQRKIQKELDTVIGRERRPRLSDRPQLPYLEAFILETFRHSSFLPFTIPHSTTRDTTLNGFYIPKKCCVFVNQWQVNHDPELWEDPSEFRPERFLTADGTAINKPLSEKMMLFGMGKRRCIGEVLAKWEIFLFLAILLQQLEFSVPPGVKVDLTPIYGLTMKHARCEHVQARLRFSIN
# protocol: In vitro CYP450 inhibition assay (Vivid)
# Assay type: biochemical
# cond: probe fluorogenic Vivid CYP450 substrate (not named)
readout: inhibition at 25 min, 10 µM (%)

1. O=P(O)(O)CP(=O)(O)OC[C@H]1O[C@@H](n2ccc3c(-c4ccc(F)c5ccccc45)nc(Cl)nc32)[C@H](O)[C@@H]1O; 9
2. Cc1nc(-c2cccc3ccccc23)c2ccn([C@@H]3O[C@H](COP(=O)(O)CP(=O)(O)O)[C@@H](O)[C@H]3O)c2n1 [18E.6]; 8
3. O=P(O)(O)CP(=O)(O)OC[C@H]1O[C@@H](n2ccc3c(-c4cccc5ccncc45)ncnc32)[C@H](O)[C@@H]1O; 7

###

# protocol: Microsomal stability assay, mouse liver microsomes
# Assay type: in vitro ADME
# cond: pooled liver microsomes, pH 7.4, read-out: Mics (m) CLint
readout: microsomal CLint at 10 µM

Past entries and their recorded results:
1. O=P(O)(O)CP(=O)(O)OC[C@H]1O[C@@H](n2ccc3c(-c4ccco4)nc(Cl)nc32)[C@H](O)[C@@H]1O; < 1 µL/min/mg
2. Nc1nc(-c2cccc3ccccc23)c2ccn([C@@H]3O[C@H](COP(=O)(O)CP(=O)(O)O)[C@@H](O)[C@H]3O)c2n1 [11C.6]; < 1 µL/min/mg
3. O=P(O)(O)CP(=O)(O)OC[C@H]1O[C@@H](n2ccc3c(-c4cccc5c4CCCC5)ncnc32)[C@H](O)[C@@H]1O; < 1 µL/min/mg
4. O=P(O)(O)CP(=O)(O)OC[C@H]1O[C@@H](n2ccc3c(-c4ccc5ccccc5c4)nc(Cl)nc32)[C@H](O)[C@@H]1O; < 1 µL/min/mg
5. Nc1ccc(-c2nc(Cl)nc3c2ccn3[C@@H]2O[C@H](COP(=O)(O)CP(=O)(O)O)[C@@H](O)[C@H]2O)c2ccccc12; < 2 µL/min/mg

stdin: Query (compound): O=P(O)(O)CP(=O)(O)OC[C@H]1O[C@@H](n2ccc3c(-c4ccnc5ccccc45)ncnc32)[C@H](O)[C@@H]1O ; field requested: microsomal CLint at 10 µM
stdout: 9 µL/min/mg

stdin: Further, for O=P(O)(O)CP(=O)(O)OC[C@H]1O[C@@H](n2ccc3c(-c4cc5ccccc5o4)nc(Cl)nc32)[C@H](O)[C@@H]1O ?
stdout: < 1 µL/min/mg
